biological target: VDR:RXRa (Homo sapiens, UniProt P11473;P19793 full;full); experiment: no ligand; PBM; 270 nM : 90 nM RXRa; PBS pH 7.4, 2% milk, 0.02% Triton X-100, 1 mM DTT, BSA, 0.4 mg/ml salmon testes DNA; conditions: tags: His kept;His cleaved; copies: 1;1; label: surface-attached array probe
Sequence (P11473 whole entry, chain 1 of 2): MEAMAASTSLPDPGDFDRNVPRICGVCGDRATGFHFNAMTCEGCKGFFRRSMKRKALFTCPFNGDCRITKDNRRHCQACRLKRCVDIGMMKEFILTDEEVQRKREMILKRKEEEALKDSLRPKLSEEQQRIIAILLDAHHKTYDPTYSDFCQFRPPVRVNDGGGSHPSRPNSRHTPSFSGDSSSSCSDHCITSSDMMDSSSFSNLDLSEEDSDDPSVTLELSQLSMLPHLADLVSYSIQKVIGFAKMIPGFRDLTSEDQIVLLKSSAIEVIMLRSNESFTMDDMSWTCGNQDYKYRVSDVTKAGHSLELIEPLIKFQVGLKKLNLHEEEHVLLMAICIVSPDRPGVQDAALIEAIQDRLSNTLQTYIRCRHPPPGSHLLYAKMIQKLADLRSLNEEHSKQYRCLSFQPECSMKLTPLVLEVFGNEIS
Sequence (P19793 whole entry, chain 2 of 2): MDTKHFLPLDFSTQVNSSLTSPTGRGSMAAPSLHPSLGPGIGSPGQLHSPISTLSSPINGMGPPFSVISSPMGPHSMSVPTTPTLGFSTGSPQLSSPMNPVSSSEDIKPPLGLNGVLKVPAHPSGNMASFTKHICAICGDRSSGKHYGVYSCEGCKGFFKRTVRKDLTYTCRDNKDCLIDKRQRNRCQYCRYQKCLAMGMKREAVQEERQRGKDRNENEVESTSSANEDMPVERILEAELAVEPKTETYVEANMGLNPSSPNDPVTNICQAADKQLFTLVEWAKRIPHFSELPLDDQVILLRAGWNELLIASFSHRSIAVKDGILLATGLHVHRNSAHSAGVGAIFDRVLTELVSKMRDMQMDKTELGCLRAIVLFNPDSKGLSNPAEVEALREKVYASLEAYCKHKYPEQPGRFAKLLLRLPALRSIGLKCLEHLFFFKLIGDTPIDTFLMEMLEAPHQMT
readout-kind: binding signal

binder="NRC3_wobSeed26_DR1_T9G_o1 (dsDNA) DNA 1: GCTCTAGTGGGTCAAAGGTCACACACTCGAAATGCGGCGATTGACAGCGTAGAATGAAGG DNA 2: CCTTCATTCTACGCTGTCAATCGCCGCATTTCGAGTGTGTGACCTTTGACCCACTAGAGC" value_observed="7 PBM z-score against 500 random probes"
